- Target Entity: UniProt O42713
- Sequence (O42713 whole entry): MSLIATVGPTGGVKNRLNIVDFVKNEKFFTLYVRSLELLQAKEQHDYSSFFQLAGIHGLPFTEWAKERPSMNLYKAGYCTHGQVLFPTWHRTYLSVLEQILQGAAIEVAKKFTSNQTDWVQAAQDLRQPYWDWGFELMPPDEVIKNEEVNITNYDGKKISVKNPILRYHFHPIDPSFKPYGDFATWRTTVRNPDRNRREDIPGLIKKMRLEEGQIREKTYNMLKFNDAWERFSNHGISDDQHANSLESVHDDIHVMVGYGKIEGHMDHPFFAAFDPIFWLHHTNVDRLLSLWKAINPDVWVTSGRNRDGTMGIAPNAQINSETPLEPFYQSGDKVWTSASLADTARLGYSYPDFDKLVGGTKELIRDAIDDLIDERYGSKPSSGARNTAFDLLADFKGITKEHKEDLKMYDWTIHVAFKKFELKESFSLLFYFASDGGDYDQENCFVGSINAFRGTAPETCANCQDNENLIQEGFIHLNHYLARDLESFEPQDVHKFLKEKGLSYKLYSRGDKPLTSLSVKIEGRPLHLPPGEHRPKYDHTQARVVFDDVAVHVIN
pIC50: −log10 of the molar value.
Catalogue of compounds with associated pIC50
Parameter: pIC50

>>> observed_result("COc1cc(O)c(C=O)cc1Cc1cc(C=O)c(O)cc1OC")
3.93
>>> observed_result("O=Cc1cc(Cc2cc(O)c(O)c(C=O)c2)cc(O)c1O")
3.28
>>> observed_result("O=Cc1cc(Cc2ccc(O)c(C=O)c2)ccc1O")
4.13
>>> observed_result("COc1cc(Cc2cc(C=O)c(O)c(OC)c2)cc(C=O)c1O")
3.16
